system: Streptococcus sp. 'group A'; assay: Streptococcus pyogenes SK(-)GAS viability under kanamycin – luminescence, BacTiterGlo, confirmation, counter-screen for streptokinase expression inhibitor project, dose response (AID 1900); assay type: functional, organism-based
Activity calls are given as the source filed them.
readout name: EC50

Problem: # get_value(readout='EC50', item= Cc1ccc(S(=O)(=O)N2c3ccccc3OCC2C(C)(C)C)cc1 (stereo unspecified) )
Solution: 16.4 µM (active)

Problem: Report EC50 for Cc1cccc2nc(COc3ccc4ccccc4c3Br)cn12 please.
Solution: 12.7 µM (active)

Problem: If you can, please state the reported EC50 value of CC(Oc1ccc(Cl)cc1Cl)c1nc(-c2ccc(NC(=O)c3ccco3)cc2)no1 (stereo unspecified) .
Solution: 21.7 µM (active)

Problem: Reported EC50 for CC/N=C1\S/C(=C\c2ccc(-c3cccc(C(=O)O)c3)o2)C(=O)N1CC : what is it?
Solution: 3.4 µM (active)

Problem: I would be grateful if you could share the reported EC50 for Cc1cccc(/C=C2\Sc3ccc(C(=O)N4CCC(C)CC4)cc3N(C)C2=O)c1 .
Solution: 3.11 µM (active)

Problem: State the recorded EC50 for this entry: CCC(CO)Nc1ncnc2c1cnn2-c1ccc(OC)cc1 (stereo unspecified)
Solution: > 150 µM (not active)

====

target: Corticotropin-releasing factor receptor 2/Corticotropin-releasing factor-binding protein (Homo sapiens, UniProt P24387+Q13324); experiment: Dose Response confirmation of uHTS hits for small molecule antagonists of the CRF-binding protein and CRF-R2 receptor complex.; format: functional; settings: read-out: IC50_Mean
Sequence (Q13324 whole entry): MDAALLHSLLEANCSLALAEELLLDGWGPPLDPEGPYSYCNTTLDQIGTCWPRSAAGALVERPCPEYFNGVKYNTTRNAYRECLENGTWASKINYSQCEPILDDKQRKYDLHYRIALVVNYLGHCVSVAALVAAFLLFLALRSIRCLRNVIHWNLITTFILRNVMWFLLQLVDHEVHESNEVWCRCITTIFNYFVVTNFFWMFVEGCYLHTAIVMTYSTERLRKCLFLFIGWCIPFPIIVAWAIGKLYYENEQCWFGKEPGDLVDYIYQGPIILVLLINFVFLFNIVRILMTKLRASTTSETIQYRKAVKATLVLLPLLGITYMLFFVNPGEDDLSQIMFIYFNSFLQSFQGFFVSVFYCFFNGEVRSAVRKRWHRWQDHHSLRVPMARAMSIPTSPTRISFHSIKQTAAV
Sequence (P24387 whole entry): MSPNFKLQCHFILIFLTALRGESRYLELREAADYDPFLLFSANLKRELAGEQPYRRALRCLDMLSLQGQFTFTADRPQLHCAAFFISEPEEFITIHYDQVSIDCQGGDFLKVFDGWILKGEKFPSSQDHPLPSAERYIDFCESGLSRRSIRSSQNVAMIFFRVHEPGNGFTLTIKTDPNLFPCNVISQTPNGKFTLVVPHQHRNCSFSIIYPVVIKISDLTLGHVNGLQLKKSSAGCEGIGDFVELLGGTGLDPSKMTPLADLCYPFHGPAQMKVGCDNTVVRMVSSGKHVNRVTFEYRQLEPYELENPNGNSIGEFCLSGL
Active and inactive are the calls of the source.
# valid calls are active, inactive; nothing else

Problem: Called result for COc1ccc(OC2C(=O)N(c3cc(C)ccc3C)C2c2ccc(OC)c(OC)c2)cc1 (stereo not given)
Solution: inactive

Problem: Please let me know the test result on file for COc1ccc(OC)c(CN2CCN(S(=O)(=O)c3ccc(NC(C)=O)cc3)CC2)c1 .
Solution: inactive

Problem: Per the assay record, what outcome was assigned to COc1ccc(-n2nnnc2SCC(=O)c2ccc(OC)c(OC)c2)cc1 ?
Solution: inactive

Problem: Hi, sorry to bother you, what did the test record for Cc1nn(C(=O)c2c(-c3ccccc3)noc2C)c(C)c1N=Nc1cc(C(F)(F)F)cc(C(F)(F)F)c1 ?
Solution: inactive

Problem: Field: outcome | Entry: O=C(Nc1ccccn1)C1CCN(S(=O)(=O)c2ccc3ccccc3c2)CC1
Solution: inactive

Problem: Dear all, I need the recorded test outcome for COc1cccc(C(=O)Nc2cc(C(=O)NCc3ccc(C)cc3)ccc2N2CCC3(CC2)CC(c2cccc(Br)c2)=NO3)c1 , thank you.
Solution: active

Problem: // return assay outcome for CCC(C(=O)NCCN1CCOCC1)n1c2ccccc2c2nc(=O)cc(C)n21 (stereo not given)
Solution: inactive

Problem: Hello, I am checking results. What call was entered for Cc1ccc(S(=O)(=O)N2CCN(C(=O)COc3ccc(C)nc3[N+](=O)[O-])CC2)c(C)c1 ?
Solution: inactive

Problem: Could you please tell me the result logged for CCOc1ccc(OCCSc2nc(N)cc(=O)[nH]2)cc1 in this assay?
Solution: inactive

Problem: Recorded call for O=C(CCCc1cccs1)Nc1ccc2c(c1)OCO2 ?
Solution: inactive

====

molecular target: Endoribonuclease toxin MazF (Escherichia coli K-12); experiment: activation of MazEF endoribonuclease cleavage – biochemical, fluorescence, single-stranded RNA substrate, uHTS hits, dose response (AID 588481); type: functional
Sequence (P0AE70 whole entry): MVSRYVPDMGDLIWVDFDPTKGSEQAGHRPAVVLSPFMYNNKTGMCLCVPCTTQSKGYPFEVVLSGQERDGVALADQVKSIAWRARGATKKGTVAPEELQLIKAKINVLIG
Activity calls are given as the source filed them.
Answer with one of the outcomes given here: 1.0 = active, 0.0 = inactive

Problem: Recorded test call requested for Nc1nc(N)c2cc(S(=O)(=O)c3ccc4ccccc4c3)ccc2n1
Solution: 0.0

Problem: Please let me know the test result on file for CN1/C(=C/C(=O)c2ccc(Cl)cc2)Sc2cc3c(cc21)OCO3 .
Solution: 0.0

Problem: Record request — test call for O=C1C=C(c2c(O)ccc3ccccc23)c2ccccc2C1=O
Solution: 1.0

Problem: Write down the call the test reported for this compound. Item: Cc1ccc(C)c(Nc2nc3c(S(=O)(=O)c4ccccc4)nnn3c3ccccc23)c1
Solution: 0.0

Problem: Short answer needed: outcome of this test for C=CCSC1=N/C(=C\c2cc(OC)c3c(c2)OCO3)C(=O)S1 ?
Solution: 0.0
